- assay_notes: amyloid nucleation score (Sup35N fusion, yeast selection) (log enrichment); library NNK2; higher = more nucleation; inactive = no reads after selection;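 further: zero at mode of non-aggregating sequences after 7 days selection at 30°C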
Think of 0.03 as a floor: if amyloid nucleation score stands on it or above, it is rule met; beneath it, rule not met.

# substance, label
data = [
    ("VWMYITSW", "rule not met"),
    ("LVSFGPLMDQGSCIALHSRR", "rule met"),
    ("LDCLRFTDFILIISKFVPVL", "rule not met"),
    ("VLHKNTKMANTWVHNPTEVE", "rule not met"),
    ("YWFVGTPCAVRVGWFSQPHR", "rule met"),
    ("FVRSIDNSAYLLWVSLYPCM", "rule not met"),
    ("NGVQKVVCQGTRLGCVLGLD", "rule met"),
    ("LAKFYLWCSGYMHSS", "rule met"),
]
